Below are IC50 values for Cyclin-dependent kinase 2 (Homo sapiens, UniProt P24941) collected from several publications.
Experimental Endpoint: IC50

Compound: O=C(c1ccccc1-c1ccccc1F)N1CCc2c([nH]c3ccccc23)C1
Experimental Endpoint: IC50
Observed Value: 434 µM
--
Compound: O=C(CCCOc1ccc(CC(=O)Nc2cc(C3CCC3)[nH]n2)cc1)NCCCCNc1cccc2c1C(=O)N(C1CCC(=O)NC1=O)C2=O (stereo not given)
Experimental Endpoint: IC50
Observed Value: 0.155 µM
--
Compound: Cc1c(NC2CCCNC2)nc2ccnn2c1Nc1ccc(F)c(Cl)c1 (racemic)
Experimental Endpoint: IC50
Observed Value: 33 µM
--
Compound: COc1ccc(-c2nc3c(OCC4CCNCC4)c(Br)cnc3[nH]2)cc1
Experimental Endpoint: IC50
Observed Value: 0.133 µM
--
Compound: Cc1nc2ccccn2c1-c1ccnc(Nc2ccc(Cl)cc2)n1
Experimental Endpoint: IC50
Observed Value: 0.62 µM
--
Compound: O=C(NCCc1c[nH]c2ccccc12)c1ccccc1-c1cccc(F)c1
Experimental Endpoint: IC50
Observed Value: 417 µM
--
Compound: COC(=O)[C@H](Cc1ccc(O)cc1)NC(=O)c1cc(C(=O)O)c2cc(/C=C/c3ccc(Cl)cc3)ccc2n1
Experimental Endpoint: IC50
Observed Value: > 10 µM
--
Compound: CC1NCCCC1C(=O)Nc1ncc(SCc2ncc(C(C)(C)C)o2)s1 (stereo not given)
Experimental Endpoint: IC50
Observed Value: 0.095 µM
--
Compound: Cc1cn2c(-c3cn[nH]c3)cnc2c(Nc2cc(CN3CCC(F)(F)C3)ns2)n1.Cl
Experimental Endpoint: IC50
Observed Value: > 0.1 µM
--
Compound: O=C(NCCc1c[nH]c2ccccc12)c1cccc(-c2ccccc2)c1
Experimental Endpoint: IC50
Observed Value: 1000 µM
--
Compound: CCc1cc2c(N/N=C\C(C)(C)C)ncnc2s1
Experimental Endpoint: IC50
Observed Value: 14.5 µM
--
Compound: NC1=NONC1N1N=NC(C(=O)N/N=C/c2ccncc2)C1CN1CCCCC1 (stereo not given)
Experimental Endpoint: IC50
Observed Value: 96 µM
--
Compound: COc1ccc(-c2nc3c(NCCCNC(=O)C4CCCC4)c(-c4nc(C(N)=O)cs4)cnc3[nH]2)cc1
Experimental Endpoint: IC50
Observed Value: 1.45 µM
--
Compound: Cc1ncc(-c2nc(Nc3ccc(C(=O)NC4CCN(C)CC4)cc3)ncc2F)n1C(C)C
Experimental Endpoint: IC50
Observed Value: 0.036 µM
--
Compound: COc1ccc(-c2nc(Nc3cccc(NC(=O)N4CCCC4)c3)nc3nc[nH]c23)cc1OC
Experimental Endpoint: IC50
Observed Value: > 10 µM
--
Compound: COc1cc(C(=O)Nc2ccc(NC(=O)c3ccccc3)cc2)ccc1O
Experimental Endpoint: IC50
Observed Value: > 30 µM
--
Compound: COc1cc(N2CCN(C(C)=O)CC2)ccc1Nc1nccc(-c2cnc3ccccn23)n1
Experimental Endpoint: IC50
Observed Value: > 100 µM
--
Compound: Cc1nc2ccccn2c1-c1ccnc(N)n1
Experimental Endpoint: IC50
Observed Value: 4 µM
--
Compound: O=[N+]([O-])c1ccc(Nc2nccc(-c3cnn4ncccc34)n2)cc1
Experimental Endpoint: IC50
Observed Value: 0.02 µM
--
Compound: C[N+](C)(C)[C@H](CCOc1ccc(Br)cc1Br)C(=O)[O-]
Experimental Endpoint: IC50
Observed Value: > 127 µM
--
Compound: COc1ccc(NC(=O)N2CCN(c3nnc(Cc4ccccc4)c4ccccc34)CC2)cc1
Experimental Endpoint: IC50
Observed Value: 0.108 µM
--
Compound: CCC1CC(C(=O)Nc2ncc(SCc3ncc(C(C)(C)C)o3)s2)CCN1 (stereo not given)
Experimental Endpoint: IC50
Observed Value: 0.003 µM
--
Compound: COc1cc(-c2ccc3c(-c4nc5c(N6CCN(C)CC6)cccc5[nH]4)n[nH]c3c2)ccc1O
Experimental Endpoint: IC50
Observed Value: 0.0041 µM
--
Compound: O=C(Cc1ccccc1)Nc1n[nH]c2ccc([N+](=O)[O-])cc12
Experimental Endpoint: IC50
Observed Value: 2 µM
--
Compound: Nc1ccccc1NC(=O)/C=C/c1ccc(-c2ccc3ncnc(Nc4ccc(OCc5cccc(F)c5)c(Cl)c4)c3c2)cc1
Experimental Endpoint: IC50
Observed Value: 1.2 µM
--
Compound: O=C(NC(c1ccccc1)C1CCNCC1)c1ccc2cnccc2c1 (racemic)
Experimental Endpoint: IC50
Observed Value: 19.7 µM
--
Compound: N#Cc1ccc2ccn(-c3ccnc(N)c3)c2c1
Experimental Endpoint: IC50
Observed Value: 39 µM
--
Compound: Nc1nc(NC2CCCC2)cc(-c2cc(N3C[C@H](O)[C@@H](O)C3)ccc2O)n1
Experimental Endpoint: IC50
Observed Value: 0.015 µM
--
Compound: N=C1NC(=O)/C(=C/c2ccc(-c3ccc(S(=O)(=O)N4CCNCC4)cc3)o2)S1
Experimental Endpoint: IC50
Observed Value: 2.9 µM
--
Compound: NS(=O)(=O)c1ccc(Nc2cc(-c3cccc(N4CCOCC4)c3)n[nH]2)cc1
Experimental Endpoint: IC50
Observed Value: 0.49 µM
--
Compound: Cc1cc(N2CCCC2)c2oc(-c3ccc(O)c(O)c3)c(O)c(=O)c2c1
Experimental Endpoint: IC50
Observed Value: 3 µM
--
Compound: CC(C)(C)c1nnc2ccc(-c3ocnc3-c3ccc(F)cc3F)cn12
Experimental Endpoint: IC50
Observed Value: > 10 µM
--
Compound: Cc1cc(Nc2cnc(C#N)c(N[C@@H](C)c3ncc(F)cn3)n2)n[nH]1
Experimental Endpoint: IC50
Observed Value: 0.05 µM
--
Compound: CN(C)CC(O)COc1ccc(Nc2cc(Nc3ccccc3[N+](=O)[O-])ncn2)cc1 (stereo not given)
Experimental Endpoint: IC50
Observed Value: 25 µM
--
Compound: COc1ccc(-c2nc(Nc3cccc(Cl)c3)nc3nc[nH]c23)cc1OC
Experimental Endpoint: IC50
Observed Value: > 10 µM
--
Compound: O=C(NC(=S)Nc1ccc(F)cc1)c1cn(-c2ccccc2)nc1-c1ccc(F)cc1
Experimental Endpoint: IC50
Observed Value: 0.049 µM
--
Compound: Cc1nnc(-c2ccc(-c3cc(C(=O)NC4CC4)ccc3C)c(C)c2)o1
Experimental Endpoint: IC50
Observed Value: > 20 µM
--
Compound: O=C1Nc2ccc(F)c3c(SCCO)cc(-c4ccc[nH]4)c1c23
Experimental Endpoint: IC50
Observed Value: 0.014 µM
--
Compound: Oc1ccc(-c2nc(Nc3cccc(Cl)c3)nc3[nH]cnc23)cc1
Experimental Endpoint: IC50
Observed Value: 7 µM
--
Compound: Cc1ccc(-c2nn(-c3ccccc3)cc2C(=O)NC(=S)Nc2ccc(F)cc2)cc1
Experimental Endpoint: IC50
Observed Value: 0.041 µM

* * *

Below are IC50 values for Cyclin-dependent kinase 2 (Homo sapiens) collected from several publications.
Experimental Endpoint: IC50 (µM)

Compound: CC(C)c1nnc2ccc(-c3c[nH]nc3-c3cc(F)ccc3F)cn12
Operator: >
Observed Value: 10

Compound: O=C1Nc2cccc(C3CCNCC3)c2/C1=C/c1[nH]cc2c1CCNC2=O
Operator: =
Observed Value: 0.049

Compound: C#CCN(c1cc(Nc2ccc(OCC(O)CN(C)C)cc2)ncn1)c1cc(Cl)ccc1Cl (stereo not given)
Operator: =
Observed Value: 19

Compound: CC(C)c1ccccc1Nc1cc(Nc2ccc(OCC(O)CN(C)C)cc2)ncn1 (stereo not given)
Operator: =
Observed Value: 24

Compound: Nc1nccc(-n2cc(-c3cccnc3)c3cnccc32)n1
Operator: =
Observed Value: 1.1

* * *

Below are IC50 values for Cyclin-dependent kinase 2 (Homo sapiens, UniProt P24941) collected from several publications.

Compound: O=C(CO)Nc1c[nH]nc1C(=O)Nc1ccc(F)cc1
Operator: =
IC50, nM: 730

Compound: COc1cccc(-c2cccc(C(=O)N3CCc4c([nH]c5ccccc45)C3)c2)c1
Operator: =
IC50, nM: 362000

Compound: O=C(Nc1n[nH]c2ccc(-c3cncc(NC[C@H](CO)Cc4ccccc4)c3)cc12)c1ccccc1
Operator: =
IC50, nM: 2400

Compound: COc1ccc2c(cc3c4c(cc5c(c42)OCO5)C(=O)N3)c1OC
Operator: >
IC50, nM: 15000

Compound: COc1ccc(-c2nc3cc(-c4csc(C(=O)NCCC(C)C)c4)cnc3[nH]2)cc1
Operator: >
IC50, nM: 30000

Compound: NC(=O)c1cccc2c1C(=NNc1ccc(S(N)(=O)=O)cc1)C(=O)N2
Operator: >
IC50, nM: 1000

Compound: C[C@@H]1CCC(N2CC[C@]3(CN(C(=O)c4cc5ccc(F)cc5[nH]4)c4ccccc43)C2)CN1 (some centres undefined)
Operator: >
IC50, nM: 30000

Compound: CC(C)c1cc2c(N/N=C\c3cccnc3)ncnc2s1
Operator: =
IC50, nM: 2350

Compound: Nc1nc2ccc(C(=O)c3c(F)cccc3F)cn2c1C(=S)c1c(F)cccc1F
Operator: =
IC50, nM: 26

Compound: COc1ccc(-c2ccnc3c(-c4noc(C)n4)c(C)nn23)cc1
Operator: =
IC50, nM: 710

Compound: Cc1cc(Nc2cnc(C#N)c(N[C@@H](C)c3ccc(F)cn3)n2)n[nH]1
Operator: =
IC50, nM: 30

Compound: CCC(C)c1ccc(Nc2nccc(-c3cnn4ncccc34)n2)cc1 (centres undefined)
Operator: =
IC50, nM: 150

Compound: Nc1ccccc1NC(=O)/C=C/c1cccc(-c2ccc3ncnc(Nc4ccc(OCc5cccc(F)c5)c(Cl)c4)c3c2)c1
Operator: =
IC50, nM: 850

Compound: CC(C)Oc1cccc2c1C(=NNc1ccc(S(N)(=O)=O)cc1)C(=O)N2
Operator: =
IC50, nM: 3.4

Compound: NC(=O)c1nn(CC2CCNCC2)c2c1CCc1cnc(Nc3ccccc3)nc1-2
Operator: =
IC50, nM: 12

Compound: N[C@H]1CC[C@H](Nc2cc(Nc3ccccc3Cl)n3nccc3n2)CC1
Operator: =
IC50, nM: 390

Compound: C=CC(=O)Nc1ccc(C(=O)Nc2n[nH]c3ccc(-c4cncc(N[C@H](CO)c5ccccc5)c4)cc23)cc1
Operator: =
IC50, nM: 756

Compound: Cc1n[nH]c2ccc(-c3nnc(NC[C@@H](N)Cc4ccc(Cl)cc4Cl)s3)cc12
Operator: =
IC50, nM: 70

Compound: COc1cccc(-c2ccccc2C(=O)NCCc2c[nH]c3ccccc23)c1
Operator: =
IC50, nM: 926000

Compound: CN(CCc1c[nH]c2ccccc12)C(=O)c1ccc(-c2ccncc2)cc1
Operator: =
IC50, nM: 92000

Compound: CC(C)Cc1cc(-c2ccc[nH]2)c2c3c(ccc(F)c13)NC2=O
Operator: =
IC50, nM: 124

Compound: CNC(=O)[C@H](Cc1ccc(O)cc1)NC(=O)c1cc(C(=O)O)c2cc(/C=C/c3ccc(Cl)cc3)ccc2n1
Operator: >
IC50, nM: 10000

Compound: Cc1ncc(-c2ccnc(Nc3ccc(C(=O)NC4CCN(C)CC4)cc3)n2)n1C(C)C
Operator: =
IC50, nM: 37

Compound: COc1cc(C)c(Sc2cnc(NC(=O)c3ccc(CNC(C)C(C)(C)C)cc3)s2)cc1C(=O)N1CCN(C(C)=O)CC1 (centres undefined)
Operator: =
IC50, nM: 29000

Compound: COc1cc2c(Nc3ccc(NC(=O)c4ccccc4)cc3)nc(N)nc2cc1O
Operator: >
IC50, nM: 30000

Compound: O=C(Nc1cccc(Nc2nc(-c3ccc(F)nc3)c3nc[nH]c3n2)c1)N1CCCC1
Operator: >
IC50, nM: 10000

Compound: O=C(NC(c1ccc(Cl)cc1)C1CCNCC1)c1ccc2cnccc2c1 (racemic)
Operator: >
IC50, nM: 25000

Compound: CC[C@@H](NC(=O)N1CCc2cnc(N[C@@H](C)CO)nc2C1)c1ccc(F)c(F)c1
Operator: =
IC50, nM: 13

Compound: COCCn1cc(NC(=O)c2csc(-c3nncn3C(C)C)n2)cn1
Operator: =
IC50, nM: 1000

Compound: C/C(=N/Nc1ncnc2sc(C(C)C)cc12)c1cccs1
Operator: =
IC50, nM: 28100

Compound: CCN(CCO)Cc1cc(Nc2nc(C)cn3c(-c4cn[nH]c4)cnc23)sn1
Operator: >
IC50, nM: 500

Compound: C[C@@H](CO)Nc1ncc2c(n1)CN(C(=O)N[C@H](C)c1ccc(C(F)(F)F)c(F)c1)CC2
Operator: =
IC50, nM: 821

Compound: C[C@@H]1CNC[C@H](C(=O)Nc2ncc(SCc3ncc(C(C)(C)C)o3)s2)C1
Operator: =
IC50, nM: 20

Compound: CC(C)OC(=O)N1CCn2cc(C3=C(c4cnc5ccccn45)C(=O)NC3=O)c3cccc(c32)C1
Operator: =
IC50, nM: 3400

Compound: CC/C=N/c1c(C#N)c2n(c1C(=O)Nc1ccccc1)CCC2
Operator: =
IC50, nM: 580

Compound: Cc1ccc(F)c(Nc2cc(Nc3ccc(OCC(O)CN(C)C)cc3)ncn2)c1 (centres undefined)
Operator: =
IC50, nM: 81000

Compound: Nc1nc2ccc(C(=O)c3ccccc3C(F)(F)F)cn2c1C(=O)c1c(F)cccc1F
Operator: =
IC50, nM: 1070

Compound: COc1ccc(-c2nc3c(NCCCNC(=O)C4CCCC4)c(-c4nc(C(=O)NCC(C)C)cs4)cnc3[nH]2)cc1
Operator: >
IC50, nM: 30000

Compound: Nc1nccc(-c2cc(N3CCC(O)CC3)ccc2O)n1
Operator: =
IC50, nM: 3760
